# measurement target: T1, TNFR1 (Homo sapiens, UniProt P19438)
# T1 chain: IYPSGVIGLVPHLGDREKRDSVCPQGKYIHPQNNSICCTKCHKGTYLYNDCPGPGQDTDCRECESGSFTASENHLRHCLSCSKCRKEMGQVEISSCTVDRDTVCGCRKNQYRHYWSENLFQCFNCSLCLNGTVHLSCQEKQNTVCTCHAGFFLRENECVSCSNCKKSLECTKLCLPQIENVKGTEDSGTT
# procedure summary: yeast display SC50
property: apparent Kd (screen) (pM)

binder	apparent Kd (screen), pM
F63L (designed binder) MTLQELLREEALRRAEAEAFRYALELLAEKFPEQKEYLLDLAEEIESQIRSLSGVDVEDVRKLLDKEWAWVKELLAEHPAELAEVEAARAARLAELRAEVEAKVAA	2480

A. E33F (designed binder) MTLQELLREEALRRAEAEAFRYALELLAEKFPFQKEYLLDLAEEIESQIRSLSGVDVEDVRKFLDKEWAWVKELLAEHPAELAEVEAARAARLAELRAEVEAKVAA
B. R92W (designed binder) MTLQELLREEALRRAEAEAFRYALELLAEKFPEQKEYLLDLAEEIESQIRSLSGVDVEDVRKFLDKEWAWVKELLAEHPAELAEVEAARAAWLAELRAEVEAKVAA
C. L3R (designed binder) MTRQELLREEALRRAEAEAFRYALELLAEKFPEQKEYLLDLAEEIESQIRSLSGVDVEDVRKFLDKEWAWVKELLAEHPAELAEVEAARAARLAELRAEVEAKVAA
D. D40Y (designed binder) MTLQELLREEALRRAEAEAFRYALELLAEKFPEQKEYLLYLAEEIESQIRSLSGVDVEDVRKFLDKEWAWVKELLAEHPAELAEVEAARAARLAELRAEVEAKVAA
Arrange these 4 binders in increasing order of apparent Kd (screen). Please respond with the labels ordered as the question requires.
B, A, C, D
(B: 539 pM, A: 956 pM, C: 2480 pM, D: 11400 pM)

1. E10D (designed binder) MTLQELLREDALRRAEAEAFRYALELLAEKFPEQKEYLLDLAEEIESQIRSLSGVDVEDVRKFLDKEWAWVKELLAEHPAELAEVEAARAARLAELRAEVEAKVAA
2. E86K (designed binder) MTLQELLREEALRRAEAEAFRYALELLAEKFPEQKEYLLDLAEEIESQIRSLSGVDVEDVRKFLDKEWAWVKELLAEHPAELAEVKAARAARLAELRAEVEAKVAA
3. V71Q (designed binder) MTLQELLREEALRRAEAEAFRYALELLAEKFPEQKEYLLDLAEEIESQIRSLSGVDVEDVRKFLDKEWAWQKELLAEHPAELAEVEAARAARLAELRAEVEAKVAA
Order the records so the highest apparent Kd (screen) appears first and the lowest last. Reply with the labels, ordered as the question asks.
2, 3, 1

1. A87S (designed binder) MTLQELLREEALRRAEAEAFRYALELLAEKFPEQKEYLLDLAEEIESQIRSLSGVDVEDVRKFLDKEWAWVKELLAEHPAELAEVESARAARLAELRAEVEAKVAA
2. F63V (designed binder) MTLQELLREEALRRAEAEAFRYALELLAEKFPEQKEYLLDLAEEIESQIRSLSGVDVEDVRKVLDKEWAWVKELLAEHPAELAEVEAARAARLAELRAEVEAKVAA
Lab notebook, comparison: 1 versus 2 , higher apparent Kd (screen) goes to which? To answer, give the label that identifies your chosen option.
2
(2: 1270 pM, 1: 653 pM)

a. A23N (designed binder) MTLQELLREEALRRAEAEAFRYNLELLAEKFPEQKEYLLDLAEEIESQIRSLSGVDVEDVRKFLDKEWAWVKELLAEHPAELAEVEAARAARLAELRAEVEAKVAA
b. A19D (designed binder) MTLQELLREEALRRAEAEDFRYALELLAEKFPEQKEYLLDLAEEIESQIRSLSGVDVEDVRKFLDKEWAWVKELLAEHPAELAEVEAARAARLAELRAEVEAKVAA
# query: argmin of apparent Kd (screen) over a and b When you have decided, please share the label of that item.
a
(a: 405 pM, b: 1160 pM)

P. A23R (designed binder) MTLQELLREEALRRAEAEAFRYRLELLAEKFPEQKEYLLDLAEEIESQIRSLSGVDVEDVRKFLDKEWAWVKELLAEHPAELAEVEAARAARLAELRAEVEAKVAA
Q. D56G (designed binder) MTLQELLREEALRRAEAEAFRYALELLAEKFPEQKEYLLDLAEEIESQIRSLSGVGVEDVRKFLDKEWAWVKELLAEHPAELAEVEAARAARLAELRAEVEAKVAA
R. G54I (designed binder) MTLQELLREEALRRAEAEAFRYALELLAEKFPEQKEYLLDLAEEIESQIRSLSIVDVEDVRKFLDKEWAWVKELLAEHPAELAEVEAARAARLAELRAEVEAKVAA
I would appreciate it if you could sort these 3 binders by apparent Kd (screen), starting from the smallest number. Order the labels as requested and give them as your answer.
P, Q, R
(P: 539 pM, Q: 956 pM, R: 2480 pM)
